experiment: qHTS Assay for Lipid Storage Modulators in Drosophila S3 Cells; conditions: BODIPY lipid droplet fluorescence, 18-24 h, cells fed with added oleic acid; measured here: cell count max response;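 also: cells counted by Cell Tracker Red CMTPX staining in the red channel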
Screen size: about 320,000 compounds; about 2,100 (0.66%) were called active. Roughly 53% stayed inconclusive and do not appear here. The sample as a whole holds a higher share of actives than the screen did.
measure-name: cell number change (%)
Unit % implied. Number only.

Please review the following examples before continuing.
* CCCCn1c(CNC(=O)C(C)(C)C)nc2ccccc21 | -1.23
* CC(=O)N1CCCc2cc(S(=O)(=O)NC(C(=O)NC3CCCCC3)C(C)C)ccc21 (configuration not stated) | 13.4

Quick note, cell number change for O=C(COC(=O)c1cc2ccccc2o1)c1ccccc1 landed at -6.43

The recorded cell number change for entry CCC(=O)N(CCC(c1ccccc1)c1ccco1)Cc1cccs1 (configuration not stated) equals 1.01

// sample CCCSC1=N/C(=C\c2ccc([N+](=O)[O-])o2)C(=O)S1 , its cell number change was 18.4

###

Let's look at some compounds and their measured cell number change.
assay: qHTS Assay for Lipid Storage Modulators in Drosophila S3 Cells; details: BODIPY lipid droplet fluorescence, 18-24 h, cells fed with added oleic acid; measured here: cell count max response;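 also: cells counted by Cell Tracker Red CMTPX staining in the red channel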
Hit rate of the full screen: of about 320,000 compounds, about 2,100 (0.66%) were called active. Inconclusive results (about 53%) are left out. The entries come from a sample that favours actives as a whole.
Record the value in %, omitting the unit from your answer.

* O=C(CN1CCCC1)N1c2ccccc2C=Cc2ccccc21 | -13.2
* N#Cc1cc(N2CCCCC2)c([N+](=O)[O-])cc1C#N | -3.02
* CCSc1nnc(NC(=O)c2nc(S(=O)(=O)Cc3ccc(F)cc3)ncc2Cl)s1 | -9.14
* CN(C(=O)c1cccnc1)c1nnc(-c2cccnc2)s1 | -7.8
* O=C(Nc1ccc(OC(F)F)cc1)c1ncc(Cl)c(Cl)c1Cl | 21.1

Quick note, cell number change for N#Cc1ccccc1OCC(=O)NCC(c1ccc(F)cc1)N1CCOCC1 (centres undefined) landed at 17.7

Reported cell number change of CN(C)c1ccc(/C=C2\C(=N)N3C(=NC2=O)Sc2cc(S(C)(=O)=O)ccc23)cc1 : 29.8

Entry under test: O=C(CCl)Nc1ccc(N=Nc2ccccc2)cc1 . Its cell number change was -14.8

Looking up Cc1ccc(Nc2cc(C)nc3ncnn23)c(Cl)c1 , I see its cell number change listed as 1.99

# cell number change (compound: Cc1cc(NC(=O)CN2C(=O)NC3(CCC(C)CC3)C2=O)no1 (centres undefined) ) is 5.62

Data point: O=C(N/N=C/c1ccsc1)c1ccc2c(c1)OCO2 ; cell number change = 17

Briefly, cell number change measured for O=C(O)CCCC(=O)Nc1ccc(N=Nc2ccccc2)cc1 : 17

Sample CCOC(=O)Cc1csc(N/N=C/c2ccc(C(F)(F)F)cc2)n1 ; cell number change observed: -3.51

cell number change measured on CC(=O)Nc1ccc(SCC(=O)c2ccc(Br)s2)cc1 = 5.88

Lookup result for CCOCCCNC(=O)CCC(=O)NNc1nc2ccccc2c2nc(-c3ccccc3)nn12 ; measured cell number change: -6.89

Note to self: cell number change recorded for O=C(Cc1cccs1)Nc1ccccc1F was 10.1

The reported value for O=[N+]([O-])c1ccc2c(c1)c1ccccc1n2CCO in terms of cell number change is 0.129

Form field cell number change, entry Cc1ccc(NC(=O)c2cc(=O)[nH]c3ccc(S(=O)(=O)N4CCOCC4)cc23)nc1 : -6.73

The reported value for CC1CCCC(NC(=O)COC(=O)c2cccs2)C1C (centres undefined) in terms of cell number change is 0.184

// sample C=CCn1c(SCC(N)=O)nc2sc3c(c2c1=O)CCC3 , its cell number change was -3.38

The recorded cell number change for Cc1ccc(CS(=O)(=O)c2ncc(Cl)c(C(=O)Nc3nnc(C(C)C)s3)n2)cc1 is -27.5

Briefly, cell number change measured for C/C(CC(=O)Nc1ccc(Cl)cc1Cl)=N\NC(=O)c1ccncc1 : 23

Memo: COc1ccc(C(NC(=O)CNC(C)=O)C(=O)Nc2ccc3c(c2)OCCO3)cc1 (centres undefined) , reported cell number change: 8.96

So, COC(=O)C1=C(C)N=C2SC(C#N)=C(N)N2C1c1cccc(OC)c1 (centres undefined) ? Its cell number change was -6.05
